read-out: Cytochrome P450 3A4 (Homo sapiens) (UniProt P08684); test: CLD_CYP3A4_6hr: CellzDirect (CLD) Gene Expression Assay for xenobiotic metabolism (CYP3A4) at 6 hours (AID 2283680)
Sequence (P08684 whole entry, looked up): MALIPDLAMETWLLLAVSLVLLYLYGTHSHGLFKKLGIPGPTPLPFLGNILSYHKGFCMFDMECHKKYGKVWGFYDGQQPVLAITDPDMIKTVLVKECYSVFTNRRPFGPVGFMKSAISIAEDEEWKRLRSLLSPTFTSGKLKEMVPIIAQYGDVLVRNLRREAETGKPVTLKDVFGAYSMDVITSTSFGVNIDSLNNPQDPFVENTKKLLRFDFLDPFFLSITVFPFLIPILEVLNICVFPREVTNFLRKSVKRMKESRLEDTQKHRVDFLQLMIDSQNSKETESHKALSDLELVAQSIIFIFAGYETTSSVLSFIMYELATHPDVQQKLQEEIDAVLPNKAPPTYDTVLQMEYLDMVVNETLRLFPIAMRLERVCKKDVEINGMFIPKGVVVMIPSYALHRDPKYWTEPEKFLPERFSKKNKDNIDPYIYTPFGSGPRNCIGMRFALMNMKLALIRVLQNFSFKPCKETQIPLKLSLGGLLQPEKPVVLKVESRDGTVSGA
Results filed as inconclusive are left out. The source made the active and inactive calls. How the source made its calls: active means hit-call score of the fitted dose curve at least 0.9, where 1 is the maximum; inconclusive means response in the unintended direction; inactive means score below 0.9.
Possible outcomes: true for active, false for inactive

1) CCOP(=S)(Oc1cnc(C(C)(C)C)nc1)OC(C)C (stereo not drawn)	true
2) CSc1nc(NC(C)C)nc(NC(C)C)n1	false
3) O=c1ccc(=O)[nH][nH]1	false
4) CC(=NC#N)N(C)Cc1ccc(Cl)nc1	false
5) CCOP(=S)(OCC)SCCSCC	false
6) CCOC(=O)COc1cc(-c2nn(C)c(OC(F)F)c2Cl)c(F)cc1Cl	true
7) CCCOCC(=Nc1ccc(Cl)cc1C(F)(F)F)n1ccnc1	false
8) CCCSP(=O)(OCC)Oc1ccc(Br)cc1Cl (stereo not drawn)	true
9) O=[N+]([O-])c1cc(C(F)(F)F)c(Cl)c([N+](=O)[O-])c1Nc1ncc(C(F)(F)F)cc1Cl	false
10) CC[C@H](C)[C@H]1O[C@]2(C=C[C@@H]1C)C[C@@H]1C[C@@H](C/C=C(\C)[C@@H](O[C@H]3C[C@H](OC)[C@@H](O[C@H]4C[C@H](OC)[C@@H](NC)[C@H](C)O4)[C@H](C)O3)[C@@H](C)/C=C/C=C3\CO[C@@H]4[C@H](O)C(C)=C[C@@H](C(=O)O1)[C@]34O)O2	false
11) Cc1ccn2nc(S(=O)(=O)Nc3c(F)cccc3F)nc2n1	false
12) CCc1cccc(C)c1N(C(=O)CCl)C(C)COC (stereo not drawn)	true
13) CCOP(=S)(OCC)OC(Cl)C(Cl)(Cl)Cl (stereo not drawn)	true
14) CCCCOC(=O)[C@@H](C)Oc1ccc(Oc2ccc(C#N)cc2F)cc1	false
15) Cc1cc(C2CC2)nc(Nc2ccccc2)n1	false
16) CCCSP(=O)(OCC)SCCC	false
17) Cc1nn(-c2cc(NS(C)(=O)=O)c(Cl)cc2Cl)c(=O)n1C(F)F	true
18) CCNc1nc(Cl)nc(NC(C)(C)C#N)n1	false
19) CCCCOC(=O)c1ccccc1C(=O)O	false
20) CC(C)[C@H](C(=O)O[C@H](C#N)c1cccc(Oc2ccccc2)c1)c1ccc(Cl)cc1	false
21) CCOP(=S)(OCC)Oc1ccc2c(C)c(Cl)c(=O)oc2c1	false
22) COc1cccc(C(=O)NN(C(=O)c2cc(C)cc(C)c2)C(C)(C)C)c1C	true
23) CSc1nnc(C(C)(C)C)c(=O)n1N	false
24) C#CCC1=C(C)C(OC(=O)C2C(C=C(C)C)C2(C)C)CC1=O (stereo not drawn)	true
25) COP(=O)(NC(C)=O)SC (stereo not drawn)	false
26) S=C1NCCN1	false
27) CSC1=N[C@@](C)(c2ccccc2)C(=O)N1Nc1ccccc1	false
28) CCCCSP(=O)(SCCCC)SCCCC	false
29) CON=C(C(=O)OC)c1ccccc1CON=C(C)c1cccc(C(F)(F)F)c1	false
30) CCOP(=O)(SC(C)CC)N1CCSC1=O (stereo not drawn)	true
31) CN(C)C(=O)Nc1cccc(C(F)(F)F)c1	false
32) CNC(=O)Oc1cccc2c1OC(C)(C)O2	false
33) CCOP(=S)(OCC)Oc1cc(C)nc(C(C)C)n1	false
